# Test system: MDR1
# Assay Text: in vitro
# Condition Parameters: dog, MDCK-MDR1, pH 7.4, MDCK-MDR1: Papp A-B (10^−6, cm/s)
Papp A→B at 120 min, 5 μM vs 30 nm/s: at or above is 1.0, below is 0.0.

Please check the record Cc1cc(-c2ccc(-c3cnc(N(C)[C@@H]4CC5CC[C@H](N5)[C@@H]4F)cn3)c(O)c2)cc(=O)[nH]1 (single isomer, unassigned) and state if its Papp A→B at 120 min, 5 μM is at or above 30 nm/s. 0.0

Please check the record O=c1cc(-c2cc(O)c(-c3cnc(N(C4CC4)[C@H]4C[C@@H]5CCC(N5)[C@H]4F)cn3)cc2F)ccn1CF (single isomer, unassigned) and state if its Papp A→B at 120 min, 5 μM is at or above 30 nm/s. 0.0

Please check the record COc1cc(-c2ccc(-c3cnc(N(C)[C@@H]4CC5COC[C@H](N5)[C@@H]4F)cn3)c(O)c2)cnn1 (single isomer, unassigned) and state if its Papp A→B at 120 min, 5 μM is at or above 30 nm/s. 0.0

Please check the record Oc1cc(-n2ccnn2)c(F)cc1-c1cnc(N(C2CC2)[C@H]2C[C@@H]3CCC(N3)[C@H]2F)cn1 (single isomer, unassigned) and state if its Papp A→B at 120 min, 5 μM is at or above 30 nm/s. 1.0

Please check the record CNC(=O)/C=C/c1cc(O)c(-c2cnc(N(C)[C@@H]3C[C@@]4(C)CC[C@](C)(N4)[C@@H]3F)cn2)cc1F and state if its Papp A→B at 120 min, 5 μM is at or above 30 nm/s. 0.0

Please check the record CN(c1cnc(-c2ccc(-c3cn[nH]c3)cc2O)cn1)[C@H]1CC2CCC[C@@H](N2)[C@H]1F (single isomer, unassigned) and state if its Papp A→B at 120 min, 5 μM is at or above 30 nm/s. 1.0
